- Test system: MCF7
- PROTOCOL: Antiproliferative activity against MCF7 cell line at 10 uM
- Type: functional
- CONDITIONS: Homo sapiens
ASSAY METRIC: inhibition at 10 µM (%)
Note: unit % is implicit; provide only the numeric part.

{"SMILES NOTATION": "C[C@@H]1C[C@H](C)C[C@H](C)[C@@H](O)CC(=O)O[C@H]([C@@H]2CCC[C@H]2C(=O)O)C/C=C/C=C(/C#N)[C@H](O)[C@@H](C)C1", "TARGET OR TEST SYSTEM": "MCF7", "VALUE UNITS": "%", "inhibition at 10 µM": 13}

## Input Can you look up the measured inhibition at 10 µM of C[C@@H]1C[C@H](C)C[C@H](C)[C@@H](O)CC(=O)O[C@H](C[C@@H](C)C(=O)O)C/C=C/C=C(/C#N)[C@H](O)[C@@H](C)C1 for me?
## Output 16

## Input Here is the next compound: CS[C@H](C[C@@H]1C/C=C/C=C(/C#N)[C@H](O)[C@@H](C)C[C@H](C)C[C@H](C)C[C@H](C)[C@@H](O)CC(=O)O1)C(=O)O
## Output 48
